SYSTEM: PKA (Homo sapiens)
PROTOCOL_DESCRIPTION: Literature Mimetic PKA assay
Format: biochemical
CONDITIONS_USED: Ki, Literature Mimetic (L) conditions; pentapeptide PKA inhibitors
Starred links: 1 amine or outer side, 2 acyl side, 3 side chain; linkers in the order of their positions; H or OH if unused. Non-standard residues stand in square brackets, D forms with d. Residues, ends and D or L forms follow the SMILES beside them. X5 = O=C([C@H](CNS(=O)(=O)O)N[*:1])[*:2]
TEST_READOUT: Ki (nM)
Write the number in nM without appending the unit.

Q. // Ki lookup, key: CC[C@H](C)[C@H](NC(=O)[C@H](CNS(=O)(=O)O)NC(=O)CNC(=O)[C@H](CCCNC(=N)N)NC(=O)[C@H](CCCNC(=N)N)NC(C)=O)C(N)=O [Compound 8] (Ac-RRG[X5]I-NH2)
A. 160
